Reference for the values: PubChem BioAssay AID2060627

- Tested on: 156681-154-R-J1-PDC complex spheroid viability;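 also: spheroids exposed to the agents for seven days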
- TEST_METHOD_NOTES: Anticancer human tumor 156681-154-R-J1-PDC patient-derived melanoma cell line growth inhibition [CLK]
- RUN_PARAMETERS: second compound 10 µM; first compound 1 µM; hits give low values
Decision: viability, T/C beneath 0.5% gives Met; viability, T/C meeting or exceeding 0.5% gives Not met.

1) C=C(F)C(=O)N1CCN(c2nc(OCC3CCCN3C)nc3c2CCN(c2cccc4cccc(Cl)c24)C3)CC1CC#N (stereo not given) + CN1CCN(c2cc(C(=O)Nc3cc4cc(-c5cnn(C)c5)ccc4cn3)ccn2)CC1	Met
2) COC1C=CCC(C)C(C)S(=O)(=O)NC(=O)c2ccc3c(c2)N(CC2CCC21)CC1(CCCc2cc(Cl)ccc21)CO3 (stereo not given) + CNC(=O)c1ccc(Nc2nc(OC3CCCC3)c3c(-c4ccc5nc(C)oc5c4)c[nH]c3n2)c(OC)c1	Not met
3) Nc1ccccc1NC(=O)c1ccc(CNC(=O)OCc2cccnc2)cc1 + CN1CCN(c2cc(C(=O)Nc3cc4cc(-c5cnn(C)c5)ccc4cn3)ccn2)CC1	Met
4) CC(=O)O[C@H]1C(=O)[C@@]2(C)[C@H]([C@H](OC(=O)c3ccccc3)[C@]3(O)C[C@H](OC(=O)[C@H](O)[C@@H](NC(=O)c4ccccc4)c4ccccc4)C(C)=C1C3(C)C)[C@]1(OC(C)=O)CO[C@@H]1C[C@@H]2O + CN1CCN(c2cc(C(=O)Nc3cc4cc(-c5cnn(C)c5)ccc4cn3)ccn2)CC1	Not met

Q: # strict comparison: is reported viability, T/C < 0.5%? input = O=c1[nH]cc(F)c(=O)[nH]1 + CN1CCN(c2cc(C(=O)Nc3cc4cc(-c5cnn(C)c5)ccc4cn3)ccn2)CC1
Result: Not met
